Values compiled from patent US20220112288A1.

TARGET DESC: T1, Recombinant human CD4 (R&D Systems, Cat. 10327-CD) (human, UniProt P01730 26-390, limits assumed)
T1 construct: Bought protein; also called huCD4
ASSAY EXPLANATION: BLI (Octet Red384), purified antibody on anti-mouse Fc sensors, human CD4 100/50/25 nM, global 1:1 fit;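 note: antibodies loaded at 10 µg/mL, curves fitted across association and dissociation phases, with an unrelated mouse-derived antibody serving as internal reference control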
ENDPOINT NAME: Response
The answer should be a number; do not append a unit.

Example cases with answers are listed next.
[[record]]
binder = "75110_11D03A (antibody, V domains shown, Tested as antibody purified from AlivaMab Mouse Kappa hybridoma (human V regions, kappa light chain, mouse Fc captured by anti-mouse Fc sensors)) VH: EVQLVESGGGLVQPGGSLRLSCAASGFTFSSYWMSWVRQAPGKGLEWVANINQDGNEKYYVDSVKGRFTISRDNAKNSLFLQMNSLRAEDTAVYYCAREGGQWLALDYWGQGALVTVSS VL: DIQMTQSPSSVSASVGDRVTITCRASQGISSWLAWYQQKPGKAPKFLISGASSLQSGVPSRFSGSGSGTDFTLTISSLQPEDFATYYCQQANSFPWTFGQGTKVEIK"
endpoint_name = "Response"
meas_value = 0.09

[[record]]
binder = "75110_08D24A (antibody, V domains shown, Tested as antibody purified from AlivaMab Mouse Kappa hybridoma (human V regions, kappa light chain, mouse Fc captured by anti-mouse Fc sensors)) VH: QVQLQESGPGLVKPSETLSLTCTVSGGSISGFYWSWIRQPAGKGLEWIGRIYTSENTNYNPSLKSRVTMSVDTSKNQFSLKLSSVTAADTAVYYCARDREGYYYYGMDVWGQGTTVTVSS VL: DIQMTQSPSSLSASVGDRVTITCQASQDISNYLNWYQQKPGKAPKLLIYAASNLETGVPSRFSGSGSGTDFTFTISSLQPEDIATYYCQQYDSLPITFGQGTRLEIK"
endpoint_name = "Response"
meas_value = 0.11


Okay, now this binder:
Lookup result for 75110_09N20A (antibody, V domains shown, Tested as antibody purified from AlivaMab Mouse Kappa hybridoma (human V regions, kappa light chain, mouse Fc captured by anti-mouse Fc sensors)) VH: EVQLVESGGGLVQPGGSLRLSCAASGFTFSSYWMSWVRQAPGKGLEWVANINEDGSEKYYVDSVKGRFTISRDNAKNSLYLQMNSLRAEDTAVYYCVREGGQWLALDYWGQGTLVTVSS VL: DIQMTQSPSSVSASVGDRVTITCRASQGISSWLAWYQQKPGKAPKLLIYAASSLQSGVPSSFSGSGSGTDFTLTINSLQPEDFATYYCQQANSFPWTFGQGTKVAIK ; measured Response: 0.09
